Quick reference for IC50 among some molecules
TARGET DESC: α4β7 integrin (Homo sapiens (Human), UniProt P13612+P26010)
Sequence (P13612 34-1032): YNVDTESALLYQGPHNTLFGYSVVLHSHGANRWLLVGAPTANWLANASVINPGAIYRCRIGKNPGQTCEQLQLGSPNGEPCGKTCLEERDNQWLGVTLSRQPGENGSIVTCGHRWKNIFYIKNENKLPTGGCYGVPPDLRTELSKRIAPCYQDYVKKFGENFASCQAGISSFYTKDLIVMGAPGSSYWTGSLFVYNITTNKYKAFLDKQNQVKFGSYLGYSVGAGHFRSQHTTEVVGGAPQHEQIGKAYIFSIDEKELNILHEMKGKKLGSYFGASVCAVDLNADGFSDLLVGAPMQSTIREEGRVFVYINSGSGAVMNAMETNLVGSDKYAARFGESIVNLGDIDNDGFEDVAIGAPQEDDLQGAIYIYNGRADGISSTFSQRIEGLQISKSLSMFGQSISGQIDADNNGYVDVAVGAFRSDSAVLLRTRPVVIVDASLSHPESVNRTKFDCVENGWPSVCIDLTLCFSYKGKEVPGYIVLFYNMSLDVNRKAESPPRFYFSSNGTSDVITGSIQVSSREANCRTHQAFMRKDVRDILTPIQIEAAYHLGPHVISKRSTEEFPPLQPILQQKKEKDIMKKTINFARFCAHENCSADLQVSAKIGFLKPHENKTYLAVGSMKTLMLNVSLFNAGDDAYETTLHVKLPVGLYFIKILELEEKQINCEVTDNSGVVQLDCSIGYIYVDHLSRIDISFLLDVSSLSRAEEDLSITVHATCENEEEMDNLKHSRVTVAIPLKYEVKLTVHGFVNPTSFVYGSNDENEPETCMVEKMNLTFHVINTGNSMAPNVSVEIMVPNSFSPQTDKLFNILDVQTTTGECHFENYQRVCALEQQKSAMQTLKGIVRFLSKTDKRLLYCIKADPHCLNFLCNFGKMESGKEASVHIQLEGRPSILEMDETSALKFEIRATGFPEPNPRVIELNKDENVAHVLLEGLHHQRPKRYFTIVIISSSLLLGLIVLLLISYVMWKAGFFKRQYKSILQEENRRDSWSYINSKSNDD
Sequence (P26010 20-798): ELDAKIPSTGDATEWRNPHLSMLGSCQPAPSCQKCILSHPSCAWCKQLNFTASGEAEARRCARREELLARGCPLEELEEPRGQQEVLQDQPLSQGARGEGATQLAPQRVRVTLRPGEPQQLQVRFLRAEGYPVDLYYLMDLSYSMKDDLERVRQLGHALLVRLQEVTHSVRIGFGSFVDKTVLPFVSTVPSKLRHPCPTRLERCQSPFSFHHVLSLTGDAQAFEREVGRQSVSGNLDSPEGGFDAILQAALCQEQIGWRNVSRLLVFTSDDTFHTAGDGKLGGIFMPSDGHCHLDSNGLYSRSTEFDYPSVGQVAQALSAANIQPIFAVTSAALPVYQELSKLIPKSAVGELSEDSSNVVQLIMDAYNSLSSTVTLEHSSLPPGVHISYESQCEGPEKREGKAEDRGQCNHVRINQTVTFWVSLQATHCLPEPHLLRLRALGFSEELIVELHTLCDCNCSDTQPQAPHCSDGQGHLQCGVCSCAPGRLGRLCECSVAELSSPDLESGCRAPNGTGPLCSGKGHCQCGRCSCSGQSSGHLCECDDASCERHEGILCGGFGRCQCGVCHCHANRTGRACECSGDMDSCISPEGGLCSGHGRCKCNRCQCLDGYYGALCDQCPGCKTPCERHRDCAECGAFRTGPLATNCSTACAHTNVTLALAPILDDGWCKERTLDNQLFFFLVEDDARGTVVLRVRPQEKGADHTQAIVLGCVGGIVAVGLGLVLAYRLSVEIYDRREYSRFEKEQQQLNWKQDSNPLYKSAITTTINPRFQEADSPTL
ASSAY PROTOCOL: Integrin Adhesion Assay: Protocol 1 (MAdCAM-coated plate, RPMI-8866 cells, CellTiter GLO readout)
Type: cell-based
CONDITION DETAILS: integrin adhesion assay; determined by at least one of the assays described (protocol not specified)

Would you please look over these solved cases?
>>> experimental_result("Cn1ccc(=O)n(-c2cccc3c(C[C@H](NC(=O)[C@]45C[C@@H]6C[C@H](C4)C(F)(F)[C@@H](C6)C5)C(=O)O)cccc23)c1=O")
"100 to 1000 nM"
>>> experimental_result("Cn1ccc(=O)n(-c2cccc3c(C[C@H](NC(=O)C45CCC(C)(CC4)CC5)C(=O)O)cccc23)c1=O")
"100 to 1000 nM"
>>> experimental_result("Cn1ccc(=O)n(-c2cccc3c(C[C@H](NC(=O)c4c(F)cccc4CN4CCOCC4)C(=O)O)cccc23)c1=O")
"< 10 nM"

Name the reported IC50 value associated with the molecule O=C(N[C@@H](Cc1cccc2c(-n3c(=O)ccc4cnccc43)cccc12)C(=O)O)c1c(F)cccc1F < 10 nM

Name the reported IC50 value associated with the molecule Cn1ccc(C(F)(F)F)c(-c2nccc3c(C[C@H](NC(=O)c4c(Cl)cc(N5CCOC[C@@H]5C(F)(F)F)cc4CN4CCC(F)(F)CC4)C(=O)O)cccc23)c1=O 10 to 100 nM

Name the reported IC50 value associated with the molecule Cn1ccc(=O)n(-c2cccc3c(C[C@H](NC(=O)C4(C)CCN(C5COC5)CC4)C(=O)O)cccc23)c1=O 10 to 100 nM

Name the reported IC50 value associated with the molecule Cn1ccc(C(F)(F)F)c(-c2nccc3c(C[C@H](NC(=O)c4c(CN5CCOCC5)cc(N5CCOC[C@@H]5C(F)(F)F)cc4C(F)(F)F)C(=O)O)cccc23)c1=O > 1000 nM

Name the reported IC50 value associated with the molecule Cn1ccc(=O)n(-c2cccc3c(C[C@H](NC(=O)c4c(F)ccc(C#N)c4F)C(=O)O)cccc23)c1=O 10 to 100 nM

----------
Quick reference for IC50 among some molecules
TARGET DESC: α4β7 integrin (Homo sapiens (Human), UniProt P13612+P26010)
ASSAY PROTOCOL: Integrin Adhesion Assay: Protocol 1 (MAdCAM-coated plate, RPMI-8866 cells, CellTiter GLO readout)
Format: cell-based
CONDITION DETAILS: integrin adhesion assay; determined by at least one of the assays described (protocol not specified)

Would you please look over these solved cases?
>>> experimental_result("CN1CCN(c2cc(F)c(C(=O)N[C@@H](Cc3cccc4c(-c5c(C(F)(F)F)ccn(C)c5=O)nccc34)C(=O)O)c(F)c2)[C@@H](C(F)(F)F)C1 [Compound 249]")
"10 to 100 nM"
>>> experimental_result("CN(C)CCc1cc(=O)n(-c2cccc3c(C[C@H](NC(=O)c4c(F)cccc4F)C(=O)O)cccc23)c(=O)n1C [Compound 116]")
"10 to 100 nM"
>>> experimental_result("Cn1ccc(C(F)(F)F)c(-c2nccc3c(C[C@H](NC(=O)c4c(F)cc(N5CCOC[C@@H]5C(F)(F)F)cc4F)C(=O)O)cccc23)c1=O [Compound 214]")
"< 10 nM"
>>> experimental_result("Cn1ccc(=O)n(-c2cccc3c(C[C@H](NC(=O)c4c(F)cc(NS(=O)(=O)C(F)(F)F)cc4F)C(=O)O)cccc23)c1=O [Compound 8]")
"< 10 nM"

From here, focus on the item given below.
Name the reported IC50 value associated with the molecule O=C(N[C@@H](Cc1cccc2c(-c3cccc4ccncc34)nccc12)C(=O)O)c1c(F)cc(N2CCOC[C@@H]2C(F)(F)F)cc1CN1CCCC1 [Compound 255] < 10 nM

Values were extracted from patent US20250313535A1.
